# protocol_text: Selectivity index, ratio of CC50 for African green monkey Vero cells to EC50 for Chikungunya virus Indian Ocean strain 899 infected in African green monkey Vero cells
# Format: toxicity
# experimental_setup: read-out: Ratio CC50/EC50
Recorded selectivity ratio values for a group of compounds are listed next.
Provide a numeric answer; units are not to be included.

Take a look at these entries with their results.
INSERT INTO measurements (chemical_structure, measured_value) VALUES
  ('Cc1ccc(/C=N/NC(=O)/C=C/c2ccc(C(F)(F)F)cc2)cc1', 2.1),
  ('C/C(=N\NC(=S)NCCc1ccccc1)c1ccc(C2CCCCC2)cc1', 12.2),
  ('Cc1ccc(/C=N/NC(=O)/C=C/c2ccc(C(C)C)cc2)cc1', 1),
  ('CCOc1ccc(/C=N/NC(=O)/C=C/c2ccc(C(F)(F)F)cc2)cc1OCC', 1.7);

Now for another entry.
Ask: Determine its reported selectivity ratio: `CC(C)(C)c1ccc(CCc2nnc(-c3ccc(O)cc3)o2)cc1`
Result: 1.8

---

# protocol_text: Selectivity index, ratio of CC50 for African green monkey Vero cells to EC50 for Chikungunya virus Indian Ocean strain 899 infected in African green monkey Vero cells
# Format: toxicity
# experimental_setup: read-out: Ratio CC50/EC50
Label Criterion met when selectivity ratio is at or above 2; otherwise label Criterion not met.

# example entries with known answers
INSERT INTO assay_data (chemical_structure, discrete_label) VALUES
  ('CCOc1ccc(/C=N/NC(=S)NCCc2ccccc2)cc1OCC', 'Criterion met'),
  ('C/C(=N\NC(=O)N/C=C/c1ccc(C(C)(C)C)cc1)c1ccc(C2CCCCC2)cc1', 'Criterion met'),
  ('Cc1ccc(-c2cn(CCc3ccccc3)nn2)cc1', 'Criterion not met');

Ask: Exam item: decide whether the reported selectivity ratio for `CCOc1ccc(-c2nnc(CCc3ccc(C(C)(C)C)cc3)o2)cc1OCC` is at least 2.
Result: Criterion not met

Ask: Exam item: decide whether the reported selectivity ratio for `CC(C)(C)c1ccc(C(=O)CC(=O)N/N=C/c2ccc(O)cc2)cc1` is at least 2.
Result: Criterion met

Ask: Exam item: decide whether the reported selectivity ratio for `Cc1ccc(-c2[nH]c3ccccc3c2/C=N/NC(=S)NCCc2ccccc2)cc1` is at least 2.
Result: Criterion met

Ask: Exam item: decide whether the reported selectivity ratio for `CC(C)(C)c1ccc(/C=C/NC(=O)N/N=C/c2ccc(O)cc2)cc1` is at least 2.
Result: Criterion not met

Ask: Exam item: decide whether the reported selectivity ratio for `Cc1ccc(/C=N/NC(=O)N/C=C/c2ccc(C(C)(C)C)cc2)cc1` is at least 2.
Result: Criterion not met

Ask: Exam item: decide whether the reported selectivity ratio for `Oc1ccc(/C=N/NC(=S)NCCc2ccccc2)cc1` is at least 2.
Result: Criterion not met

Ask: Exam item: decide whether the reported selectivity ratio for `C/C(=N\NC(=O)c1nc2ccccc2[nH]1)c1ccc(C2CCCCC2)cc1` is at least 2.
Result: Criterion met

---

# protocol_text: Cytotoxicity against African green monkey Vero cells by MTS/PMS assay
# Format: cell-based
# experimental_setup: chlorocebus sabaeus
measure: CC50

Take a look at these entries with their results.
INSERT INTO measurements (chemical_structure, measure, measured_value) VALUES
  ('CC(C)(C)c1ccc(C(=O)CC(=O)N/N=C/c2ccc(O)cc2)cc1', 'CC50', '14.7 µM'),
  ('Cc1ccc(/C=N/NC(=O)CC(=O)c2ccc(C(C)(C)C)cc2)cc1', 'CC50', '84 µM'),
  ('C/C(=N\NC(=O)c1nc2ccccc2[nH]1)c1ccc(C2CCCCC2)cc1', 'CC50', '6.2 µM'),
  ('CC(C)(C)c1ccc(CCc2nnc(-c3ccc(O)cc3)o2)cc1', 'CC50', '191 µM'),
  ('Cc1ccc(-c2cn(CCc3ccccc3)nn2)cc1', 'CC50', '200 µM');

Ask: Determine its reported CC50: `C/C(=N\NC(=O)N/C=C/c1ccc(C(C)(C)C)cc1)c1ccc(C2CCCCC2)cc1`
Result: 123 µM

Ask: Determine its reported CC50: `CCOc1ccc(-c2nnc(CCc3ccc(C(C)(C)C)cc3)o2)cc1OCC`
Result: 15.5 µM
